// total protein half-life in vivo lookup, one value per entry
Procedure Summary: total protein half-life in vivo (active degradation + dilution); higher = more stable protein
Setup Conditions: wild type E. coli NCM3722; growth: P-lim chemostat; doubling time 12 h
Write the value in h as a bare number.

Past entries and their recorded results:
MNNRVHQGHLARKRFGQNFLNDQFVIDSIVSAINPQKGQAMVEIGPGLAALTEPVGERLDQLTVIELDRDLAARLQTHPFLGPKLTIYQQDAMTFNFGELAEKMGQPLRVFGNLPYNISTPLMFHLFSYTDAIADMHFMLQKEVVNRLVAGPNSKAYGRLSVMAQYYCNVIPVLEVPPSAFTPPPKVDSAVVRLVPHATMPHPVKDVRVLSRITTEAFNQRRKTIRNSLGNLFSVEVLTGMGIDPAMRAENISVAQYCQMANYLAENAPLQES | 10.6
MHGNSEMQKINQTSAMPEKTDVHWSGRFSVAPMLDWTDRHCRYFLRLLSRNTLLYTEMVTTGAIIHGKGDYLAYSEEEHPVALQLGGSDPAALAQCAKLAEARGYDEINLNVGCPSDRVQNGMFGACLMGNAQLVADCVKAMRDVVSIPVTVKTRIGIDDQDSYEFLCDFINTVSGKGECEMFIIHARKAWLSGLSPKENREIPPLDYPRVYQLKRDFPHLTMSINGGIKSLEEAKAHLQHMDGVMVGREAYQNPGILAAVDREIFGSSDTDADPVAVVRAMYPYIERELSQGTYLGHITRHMLGLFQGIPGARQWRRYLSENAHKAGADINVLEHALKLVADKR | 10.9
MENQPKLNSSKEVIAFLAERFPHCFSAEGEARPLKIGIFQDLVDRVAGEMNLSKTQLRSALRLYTSSWRYLYGVKPGATRVDLDGNPCGELDEQHVEHARKQLEEAKARVQAQRAEQQAKKREAAATAGEKEDAPRRERKPRPTTPRRKEGAERKPRAQKPVEKAPKTVKAPREEQHTPVSDISALTVGQALKVKAGQNAMDATVLEITKDGVRVQLNSGMSLIVRAEHLVF | 4.71
MKQYLIAPSILSADFARLGEDTAKALAAGADVVHFDVMDNHYVPNLTIGPMVLKSLRNYGITAPIDVHLMVKPVDRIVPDFAAAGASIITFHPEASEHVDRTLQLIKENGCKAGLVFNPATPLSYLDYVMDKLDVILLMSVNPGFGGQSFIPQTLDKLREVRRRIDESGFDIRLEVDGGVKVNNIGEIAAAGADMFVAGSAIFDQPDYKKVIDEMRSELAKVSHE [P0AG07] | 12

Turning now to a further record.
-- ask Supply reported total protein half-life in vivo belonging to this sequence: `MPGLKITLLQQPLVWMDGPANLRHFDRQLEGITGRDVIVLPEMFTSGFAMEAAASSLAQDDVVNWMTAKAQQCNALIAGSVALQTESGSVNRFLLVEPGGTVHFYDKRHLFRMADEHLHYKAGNARVIVEWRGWRILPLVCYDLRFPVWSRNLNDYDLALYVANWPAPRSLHWQALLTARAIENQAYVAGCNRVGSDGNGCHYRGDSRVINPQGEIIATADAHQATRIDAELSMAALREYREKFPAWQDADEFRLW`
-- reply 10.8

###

Procedure Summary: total protein half-life in vivo (active degradation + dilution); higher = more stable protein
Setup Conditions: wild type E. coli NCM3722; growth: C-lim chemostat; doubling time 12 h
Readout Label: total protein half-life in vivo (h)
Note: unit h is implicit; provide only the numeric part.

Some sequences with known total protein half-life in vivo results, for comparison:
MRILLIEDDMLIGDGIKTGLSKMGFSVDWFTQGRQGKEALYSAPYDAVILDLTLPGMDGRDILREWREKGQREPVLILTARDALAERVEGLRLGADDYLCKPFALIEVAARLEALMRRTNGQASNELRHGNVMLDPGKRIATLAGEPLTLKPKEFALLELLMRNAGRVLSRKLIEEKLYTWDEEVTSNAVEVHVHHLRRKLGSDFIRTVHGIGYTLGEK | 10.8
MRRLLSVAPVLLWLITPLAFAQLPGITSQPLPGGGQSWSLPVQTLVFITSLTFIPAILLMMTSFTRIIIVFGLLRNALGTPSAPPNQVLLGLALFLTFFIMSPVIDKIYVDAYQPFSEEKISMQEALEKGAQPLREFMLRQTREADLGLFARLANTGPLQGPEAVPMRILLPAYVTSELKTAFQIGFTIFIPFLIIDLVIASVLMALGMMMVPPATIALPFKLMLFVLVDGWQLLVGSLAQSFYS [P0AC05] | 9.42
MKEKTIIIVGGGQAAAMAAASLRQQGFTGELHLFSDERHLPYERPPLSKSMLLEDSPQLQQVLPANWWQENNVHLHSGVTIKTLGRDTRELVLTNGESWHWDQLFIATGAAARPLPLLDALGERCFTLRHAGDAARLREVLQPERSVVIIGAGTIGLELAASATQRRCKVTVIELAATVMGRNAPPPVQRYLLQRHQQAGVRILLNNAIEHVVDGEKVELTLQSGETLQADVVIYGIGISANEQLAREANLDTANGIVIDEACRTCDPAIFAGGDVAITRLDNGALHRCESWENANNQAQIAAAAMLGLPLPLLPPPWFWSDQYSDNLQFIGDMRGDDWLCRGNPETQKAIWFNLQNGVLIGAVTLNQGREIRPIRKWIQSGKTFDAKLLIDENIALKSL | 2.78

Next up:
-- ask For the sequence `MNRIEHYHDWLRDAHAMEKQAESMLESMASRIDNYPELRARIEQHLSETKNQIVQLETILDRNDISRSVIKDSMSKMAALGQSIGGIFPSDEIVKGSISGYVFEQFEIACYTSLLAAAKNAGDTASIPTIEAILNEEKQMADWLIQNIPQTTEKFLIRSETDGVEAKK` , report total protein half-life in vivo.
-- reply 10.5
